# assayed system: Recombinant BTK^WT kinase (Homo sapiens, UniProt Q06187)
# Sequence (Q06187 whole entry): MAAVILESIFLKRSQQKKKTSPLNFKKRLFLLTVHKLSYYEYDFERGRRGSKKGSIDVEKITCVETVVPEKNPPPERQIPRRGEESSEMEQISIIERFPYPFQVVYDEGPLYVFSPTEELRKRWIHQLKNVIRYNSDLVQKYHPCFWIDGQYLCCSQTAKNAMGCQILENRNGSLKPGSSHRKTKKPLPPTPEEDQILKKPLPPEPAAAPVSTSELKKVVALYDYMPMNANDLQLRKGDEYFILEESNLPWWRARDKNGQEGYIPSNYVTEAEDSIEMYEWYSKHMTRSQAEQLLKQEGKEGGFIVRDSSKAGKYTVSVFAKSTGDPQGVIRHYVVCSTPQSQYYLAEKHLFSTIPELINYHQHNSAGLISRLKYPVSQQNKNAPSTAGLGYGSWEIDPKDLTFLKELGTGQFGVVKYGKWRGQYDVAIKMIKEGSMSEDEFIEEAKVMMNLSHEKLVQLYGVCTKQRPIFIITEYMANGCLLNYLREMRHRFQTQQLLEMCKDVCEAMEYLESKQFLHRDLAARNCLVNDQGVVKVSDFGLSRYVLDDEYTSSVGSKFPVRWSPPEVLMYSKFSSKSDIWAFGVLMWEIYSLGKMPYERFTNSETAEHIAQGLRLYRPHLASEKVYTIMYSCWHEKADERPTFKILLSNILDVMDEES
# experiment summary: BTK WT binding affinity (LanthaScreen TR-FRET)
# test settings: Kinase Tracer 236, 5 h incubation
Here the recorded IC50 is given for each entry.

Prompt: Could you please provide reported IC50 for COc1ccccc1C(=O)NCc1ccc(-c2nn(C3CC(O)c4ccccc43)c(N)c2C(N)=O)cc1 (stereo not shown) ? Thanks!
Completion: < 0.01 µM

Prompt: Please look at this compound and report its IC50: COc1ccccc1C(=O)NCc1ccc(-c2nn(-c3ccncc3)c(N)c2C(N)=O)cc1
Completion: 0.01 to 0.1 µM

----------
# assayed system: Recombinant EGFR (Homo sapiens, UniProt P00533)
# Sequence (P00533 25-1210): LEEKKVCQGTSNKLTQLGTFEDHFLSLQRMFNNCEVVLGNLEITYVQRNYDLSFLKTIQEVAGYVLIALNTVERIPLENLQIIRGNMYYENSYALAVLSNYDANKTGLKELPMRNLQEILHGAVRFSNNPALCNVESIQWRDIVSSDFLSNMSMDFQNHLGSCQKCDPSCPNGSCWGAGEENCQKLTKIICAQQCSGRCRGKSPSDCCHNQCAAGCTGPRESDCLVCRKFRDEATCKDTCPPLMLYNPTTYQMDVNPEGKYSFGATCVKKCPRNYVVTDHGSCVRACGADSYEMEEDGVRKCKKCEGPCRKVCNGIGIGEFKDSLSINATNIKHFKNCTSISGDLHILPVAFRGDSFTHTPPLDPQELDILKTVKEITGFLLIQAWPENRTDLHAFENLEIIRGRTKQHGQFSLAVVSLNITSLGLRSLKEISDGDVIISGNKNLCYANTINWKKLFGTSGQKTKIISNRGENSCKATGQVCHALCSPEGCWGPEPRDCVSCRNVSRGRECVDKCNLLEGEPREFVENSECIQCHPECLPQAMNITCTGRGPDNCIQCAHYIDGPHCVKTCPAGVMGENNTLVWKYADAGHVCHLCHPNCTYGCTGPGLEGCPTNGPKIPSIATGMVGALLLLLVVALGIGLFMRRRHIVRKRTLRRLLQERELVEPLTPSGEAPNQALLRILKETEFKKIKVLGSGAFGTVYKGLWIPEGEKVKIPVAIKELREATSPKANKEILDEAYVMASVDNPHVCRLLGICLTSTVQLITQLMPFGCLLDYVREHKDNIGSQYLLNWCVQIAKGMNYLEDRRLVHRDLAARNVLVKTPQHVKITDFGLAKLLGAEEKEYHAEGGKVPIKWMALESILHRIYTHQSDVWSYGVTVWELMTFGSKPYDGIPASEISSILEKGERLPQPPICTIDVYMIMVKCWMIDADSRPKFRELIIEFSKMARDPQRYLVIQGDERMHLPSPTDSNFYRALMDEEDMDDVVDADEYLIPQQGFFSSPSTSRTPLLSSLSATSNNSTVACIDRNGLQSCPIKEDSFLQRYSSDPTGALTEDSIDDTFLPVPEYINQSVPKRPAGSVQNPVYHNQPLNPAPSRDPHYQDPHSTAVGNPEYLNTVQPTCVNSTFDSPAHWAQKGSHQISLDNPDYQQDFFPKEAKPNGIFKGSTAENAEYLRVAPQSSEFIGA
# experiment summary: EGFR binding affinity (LanthaScreen TR-FRET)
# test settings: Kinase Tracer 199, 5 h incubation
IC50 by entry:

Prompt: Please report the measured IC50 for COc1ccc(F)cc1C(=O)NCc1c(F)cc(-c2nn(C3CCOCC3)c(N)c2C(N)=O)cc1F
Completion: > 10 µM

Further cases:
Prompt: Quickly give me recorded IC50 for COc1ccc(F)cc1C(=O)NCc1ccc(-c2nn([C@@H]3CCOC3)c(N)c2C(N)=O)cc1
Completion: 1 to 10 µM

Prompt: Give recorded IC50. COc1ccc(F)cc1C(=O)NCc1ccc(-c2nn(C(C3CCCC3)C(F)(F)F)c(N)c2C(N)=O)cc1 (centres unmarked)
Completion: 1 to 10 µM

Prompt: Supply reported IC50 belonging to this compound: COc1ccccc1C(=O)NCc1ccc(-c2nn(C3CC3)c(N)c2C(N)=O)cc1
Completion: 1 to 10 µM

Prompt: Return reported IC50. Input compound: COc1ccccc1C(=O)NCc1ccc(-c2nn(C3CCCC3F)c(N)c2C(N)=O)cc1 (centres unmarked)
Completion: 1 to 10 µM

Prompt: Output measured IC50 for this item: COc1ccccc1C(=O)NCc1ccc(-c2nn(CC(F)(F)F)c(N)c2C(N)=O)cc1
Completion: 0.1 to 1 µM

Prompt: Entry COc1ccccc1C(=O)NCc1ccc(-c2nn(C3CCOC3)c(N)c2C(N)=O)c(F)c1 (centres unmarked) needs its IC50 filled in; supply it.
Completion: > 10 µM

Prompt: For the compound COc1ccccc1C(=O)NCc1ccc(-c2nn(-c3ccccc3)c(N)c2C(N)=O)cc1 , give its reported IC50.
Completion: 1 to 10 µM

----------
# assayed system: Recombinant EGFR (Homo sapiens)
# Construct: purchased Invitrogen
# experiment summary: EGFR binding affinity (LanthaScreen TR-FRET)
# test settings: Kinase Tracer 199, 5 h incubation
experimental endpoint: IC50

Example entries and their recorded answers appear below.
Prompt: Consider the compound COc1ccccc1C(=O)NCc1ccc(-c2nn([C@H]3CC[C@H](Cl)C3)c(N)c2C(N)=O)cc1 (relative stereo) . State its measured IC50.
Completion: 0.1 to 1 µM

Prompt: Respond only with IC50 recorded for COc1ccccc1C(=O)NCc1ccc(-c2nn(C[C@@H]3CCCNC3)c(N)c2C(N)=O)cc1
Completion: > 10 µM

Prompt: Output measured IC50 for this item: CNc1c(C(N)=O)c(-c2ccc(CNC(=O)c3ccccc3OC)cc2)nn1C1CCOC1 (stereo not drawn)
Completion: 1 to 10 µM

Prompt: Complete the entry with IC50 for COc1ccccc1C(=O)NCc1ccc(-c2nn(C3CCC(C(=O)N(C)C)CC3)c(N)c2C(N)=O)cc1 (single isomer, unassigned) [Example 57b]
Completion: 0.1 to 1 µM

Prompt: Tell us which IC50 value is on record for COc1ccc(F)cc1C(=O)NCc1ccc(-c2nn(C(C)C3CCOCC3)c(N)c2C(N)=O)cc1 (stereo not drawn)
Completion: > 10 µM

Others:
Prompt: Name the recorded IC50 of the item COc1ccc(F)cc1C(=O)NCc1ccc(-c2nn(C(C)C(F)(F)F)c(N)c2C(N)=O)cc1F (stereo not drawn) in your answer.
Completion: 1 to 10 µM

Prompt: Return reported IC50. Input compound: COc1ccc(F)cc1C(=O)NCc1ccc(-c2nn(C(C)(C)C(F)(F)F)c(N)c2C(N)=O)cc1
Completion: 1 to 10 µM

Prompt: Answer with reported IC50 of COc1ccc(F)cc1C(=O)NCc1ccc(-c2nn(C3CCNCC3(F)F)c(N)c2C(N)=O)cc1 (stereo not drawn)
Completion: 1 to 10 µM

Prompt: State its IC50 for this compound: COc1ccc(F)cc1C(=O)NCc1ccc(-c2nn(C(C3CC3)C(F)(F)F)c(N)c2C(N)=O)cc1 (stereo not drawn)
Completion: 1 to 10 µM

Prompt: Report IC50 for COc1ccccc1C(=O)NCc1ccc(-c2nn(-c3ccc(F)cc3)c(N)c2C(N)=O)cc1
Completion: 0.1 to 1 µM

Prompt: Kindly indicate its recorded IC50. Item: COc1ccc(F)cc1C(=O)NCc1ccc(-c2nn(C3CCOCC3)c(N)c2C(N)=O)cc1
Completion: 1 to 10 µM

----------
# maps each entry to its IC50
# assayed system: Recombinant BTK^WT kinase (Homo sapiens, UniProt Q06187)
# experiment summary: BTK WT binding affinity (LanthaScreen TR-FRET)
# test settings: Kinase Tracer 236, 5 h incubation

Sample answers from the record:
Prompt: Using known records, supply IC50 for COc1ccccc1C(=O)NCc1ccc(-c2nn(-c3ccccc3F)c(N)c2C(N)=O)cc1 [Example 39]
Completion: < 10 nM

Prompt: Please list IC50 recorded for the compound COc1ccccc1C(=O)NCc1ccc(-c2nn(C3CCCC(=O)C3)c(N)c2C(N)=O)cc1 (stereo not drawn) [Example 12]
Completion: 100 to 1000 nM

***
Prompt: Note down IC50 recorded for COc1ccccc1C(=O)NCc1ccc(-c2nn(-c3ccc(C(F)(F)F)cn3)c(N)c2C(N)=O)cc1 [Example 6]
Completion: 10 to 100 nM

Prompt: State its IC50 for this compound: COCC(C)n1nc(-c2ccc(CNC(=O)c3ccccc3OC)cc2)c(C(N)=O)c1N (stereo not drawn) [Example 143]
Completion: 10 to 100 nM

Prompt: In one line, give reported IC50 of the entry CCOC(=O)C1CCCC(n2nc(-c3ccc(CNC(=O)c4ccccc4OC)cc3)c(C(N)=O)c2N)C1 (single isomer, unassigned) [Example 58] .
Completion: < 10 nM

Prompt: Dear colleague, please send me the reported IC50 for COc1ccccc1C(=O)NCc1ccc(-c2nn(C3CC(C)(C)OC(C)(C)C3)c(N)c2C(N)=O)cc1 [Example 90] when you can.
Completion: 10 to 100 nM

Prompt: Query IC50 for COc1ccc(F)cc1C(=O)NCc1ccc(-c2nn(C3CCOC3)c(N)c2C(N)=O)c(F)c1 (stereo not drawn) [Example 105]
Completion: 10 to 100 nM

Prompt: Check the records and state IC50 for COc1ccccc1C(=O)NCc1cc(F)c(-c2nn(C3CCCC3)c(N)c2C(N)=O)cc1F [Example 156]
Completion: < 10 nM

Prompt: Dear colleague, please send me the reported IC50 for COc1ccc(F)cc1C(=O)NCc1ccc(-c2nn(C3CCOC3)c(N)c2C(N)=O)cc1 (stereo not drawn) [Example 114] when you can.
Completion: < 10 nM

----------
# assayed system: Recombinant EGFR (Homo sapiens)
# experiment summary: EGFR binding affinity (LanthaScreen TR-FRET)
# test settings: Kinase Tracer 199, 5 h incubation
# Method: EGFR binding affinity was determined using a time-resolved fluorescence resonance energy transfer (TR-FRET) methodology. […] Recombinant EGFR and all LanthaScreen™ components were purchased from Invitrogen. Measurements were performed in a reaction volume of 30 μL using half-area 96-well assay plates. […]
pIC50: −log10 of the molar value.
Measured pIC50 of individual entries

Prompt: State, in one line, measured pIC50 of COc1ccccc1C(=O)NCc1ccc(-c2nn(C(CO)CCl)c(N)c2C(N)=O)cc1 (stereo not shown) [Example 66]
Completion: 5.00 to 6.00

Prompt: Please report the measured pIC50 for COc1ccccc1C(=O)NCc1ccc(-c2nn(CCN3CCOCC3)c(N)c2C(N)=O)cc1 [Example 9]
Completion: 5.00 to 6.00

Prompt: Consider the compound COc1ccccc1C(=O)NCc1ccc(-c2nn([C@@H]3CCOC3)c(N)c2C(N)=O)cc1 [Example 83b] . State its measured pIC50.
Completion: 5.00 to 6.00

Prompt: Hello, please tell me recorded pIC50 for this one: COc1ccccc1C(=O)NCc1ccc(-c2nn(C3CCC(O)(C(F)(F)F)CC3)c(N)c2C(N)=O)cc1 (stereo not shown) [Example 65]
Completion: 6.00 to 7.00

Prompt: Annotate the compound CONC(=O)C1CCC(n2nc(-c3ccc(CNC(=O)c4ccccc4OC)cc3)c(C(N)=O)c2N)CC1 (mixture of isomers) [Example 75] with its measured pIC50.
Completion: 6.00 to 7.00

Prompt: Please list pIC50 recorded for the compound COc1ccc(F)cc1C(=O)NCc1ccc(-c2nn(C3CCOC3)c(N)c2C(N)=O)cc1 (stereo not shown) [Example 114]
Completion: 5.00 to 6.00

Next:
Prompt: For COc1ccccc1C(=O)NCC(O)c1ccc(-c2nn(C3CCCC3)c(N)c2C(N)=O)cc1C (stereo not shown) [Example 187] , write its pIC50.
Completion: 5.00 to 6.00

Reference for the values: patent US11826351B2
